Every entry's value here was drawn from the NIST ThermoML archive (doi:10.1016/j.fluid.2016.09.021).

# MEASUREMENT CONDITIONS: 468 K; 20000 kPa; Liquid; Vibrating tube method
Reported mass density values for a set of compounds
MEASURED ATTRIBUTE: mass density (kg/m3)

>>> test_result("CCCCCCCCCCCC")
649.5
>>> test_result("c1ccccc1")
717
>>> test_result("CCCCCCC")
566.5
>>> test_result("Cc1ccccc1")
730.4

====

# MEASUREMENT CONDITIONS: 468 K; 30000 kPa; Liquid; Vibrating tube method
MEASURED ATTRIBUTE: mass density (kg/m3)

>>> test_result("CCCCCCC")
586.2
>>> test_result("CCCCCCCCCCCC")
661.8
>>> test_result("c1ccccc1")
735.1
>>> test_result("Cc1ccccc1")
745.9

====

Reported mass density values for a set of compounds
# MEASUREMENT CONDITIONS: 433 K; 20000 kPa; Liquid; Vibrating tube method
MEASURED ATTRIBUTE: mass density (kg/m3)

>>> test_result("Cc1ccccc1")
762.1
>>> test_result("CCCCCCC")
595.4
>>> test_result("CCCCCCCCCCCC")
672
>>> test_result("c1ccccc1")
753

====

# MEASUREMENT CONDITIONS: 353 K; 30000 kPa; Liquid; Vibrating tube method
MEASURED ATTRIBUTE: mass density (kg/m3)

>>> test_result("Cc1ccccc1 [toluene]")
840.1
>>> test_result("CCCCCCC [heptane]")
668
>>> test_result("c1ccccc1 [benzene]")
841.2
>>> test_result("CCCCCCCCCCCC [dodecane]")
731.3

====

# MEASUREMENT CONDITIONS: 393 K; 5000 kPa; Liquid; Vibrating tube method
Reported mass density values for a set of compounds
MEASURED ATTRIBUTE: mass density (kg/m3)

>>> test_result("CCCCCCCCCCCC")
681.6
>>> test_result("c1ccccc1")
772.5
>>> test_result("Cc1ccccc1")
778.5
>>> test_result("CCCCCCC")
602.8

====

# MEASUREMENT CONDITIONS: 333 K; 30000 kPa; Liquid; Vibrating tube method
Reported mass density values for a set of compounds
MEASURED ATTRIBUTE: mass density (kg/m3)

>>> test_result("CCCCCCCCCCCC")
743.4
>>> test_result("Cc1ccccc1")
855.9
>>> test_result("CCCCCCC")
682.3
>>> test_result("c1ccccc1")
859.4

====

Reported mass density values for a set of molecules
# MEASUREMENT CONDITIONS: 333 K; 5000 kPa; Liquid; Vibrating tube method
MEASURED ATTRIBUTE: mass density (kg/m3)

>>> test_result("CCCCCCC")
658.4
>>> test_result("Cc1ccccc1")
835.8
>>> test_result("c1ccccc1")
838
>>> test_result("CCCCCCCCCCCC")
725.3

====

Reported mass density values for a set of compounds
# MEASUREMENT CONDITIONS: 353 K; 20000 kPa; Liquid; Vibrating tube method
MEASURED ATTRIBUTE: mass density (kg/m3)

>>> test_result("Cc1ccccc1 [toluene]")
831.5
>>> test_result("c1ccccc1 [benzene]")
832.3
>>> test_result("CCCCCCC [heptane]")
658.5
>>> test_result("CCCCCCCCCCCC [dodecane]")
723.9
